Experiment: Critical micellar concentration by surface tension (maximum bubble-pressure)
Format: physicochemical
Settings: in NaCl 0.15 M
measurement kind: CMC NaCl 0.15M (mM)
Respond with the bare value in mM.

### Prompt Which CMC NaCl 0.15M reading was recorded for the compound `C[C@H](CCC(=O)O)[C@H]1CC[C@H]2[C@@H]3[C@@H](O)C[C@@H]4C[C@H](O)CC[C@]4(C)[C@H]3CC[C@]12C` ?
### Response 6.0

### Prompt Which CMC NaCl 0.15M reading was recorded for the compound `C[C@H](CCC(=O)O)[C@H]1CC[C@H]2[C@@H]3[C@H](O)C[C@@H]4C[C@H](O)CC[C@]4(C)[C@H]3CC[C@]12C` ?
### Response 3.0

### Prompt Which CMC NaCl 0.15M reading was recorded for the compound CC[C@H]1[C@@H](O)C2C3CCC(C(C)CCOS(=O)(=O)[O-])[C@@]3(C)CCC2[C@@]2(C)CC[C@@H](O)C[C@@H]12.[Na+] (stereo partly shown) ?
### Response 1.3

### Prompt Which CMC NaCl 0.15M reading was recorded for the compound `CC[C@H]1[C@@H](O)[C@@H]2[C@H](CC[C@]3(C)[C@@H]([C@H](C)CCC(=O)O)CC[C@@H]23)[C@@]2(C)CC[C@@H](O)C[C@@H]12` ?
### Response 2.9

* * *

Kindly supply the reported CMC H2O values for the records listed here.
Experiment: Critical micellar concentration by surface tension (maximum bubble-pressure)
Type: physicochemical
Settings: in water
Respond with the bare value in mM.

### Prompt Which CMC H2O reading was recorded for the compound `CC[C@H]1[C@@H](O)[C@@H]2[C@H](CC[C@]3(C)[C@@H]([C@H](C)CCC(=O)O)CC[C@@H]23)[C@@]2(C)CC[C@@H](O)C[C@@H]12` ?
### Response 4.5

### Prompt Which CMC H2O reading was recorded for the compound `C[C@H](CCC(=O)O)[C@H]1CC[C@H]2[C@@H]3[C@@H](O)C[C@@H]4C[C@H](O)CC[C@]4(C)[C@H]3CC[C@]12C` ?
### Response 26

### Prompt Which CMC H2O reading was recorded for the compound CC[C@H]1[C@@H](O)C2C3CCC(C(C)CCOS(=O)(=O)[O-])[C@@]3(C)CCC2[C@@]2(C)CC[C@@H](O)C[C@@H]12.[Na+] (stereo partly shown) ?
### Response 3.9

### Prompt Which CMC H2O reading was recorded for the compound `C[C@H](CCC(=O)O)[C@H]1CC[C@H]2[C@@H]3[C@H](O)C[C@@H]4C[C@H](O)CC[C@]4(C)[C@H]3CC[C@]12C` ?
### Response 7.5

* * *

Kindly supply the reported ST50: Surface Tension of 50 mM aqueous solution values for the records listed here.
Assay: Critical micellar concentration by surface tension (maximum bubble-pressure)
Format: physicochemical
Conditions: 50 mM aqueous solution
Respond with the bare value in Dyne/cm.

### Prompt Which ST50: Surface Tension of 50 mM aqueous solution reading was recorded for the molecule `CC[C@H]1[C@@H](O)[C@@H]2[C@H](CC[C@]3(C)[C@@H]([C@H](C)CCC(=O)O)CC[C@@H]23)[C@@]2(C)CC[C@@H](O)C[C@@H]12` ?
### Response 43.2

### Prompt Which ST50: Surface Tension of 50 mM aqueous solution reading was recorded for the molecule CC[C@H]1[C@@H](O)C2C3CCC(C(C)CCOS(=O)(=O)[O-])[C@@]3(C)CCC2[C@@]2(C)CC[C@@H](O)C[C@@H]12.[Na+] (stereo partly shown) ?
### Response 43.3

### Prompt Which ST50: Surface Tension of 50 mM aqueous solution reading was recorded for the molecule `C[C@H](CCC(=O)O)[C@H]1CC[C@H]2[C@@H]3[C@H](O)C[C@@H]4C[C@H](O)CC[C@]4(C)[C@H]3CC[C@]12C` ?
### Response 48.5

### Prompt Which ST50: Surface Tension of 50 mM aqueous solution reading was recorded for the molecule `C[C@H](CCC(=O)O)[C@H]1CC[C@H]2[C@@H]3[C@@H](O)C[C@@H]4C[C@H](O)CC[C@]4(C)[C@H]3CC[C@]12C` ?
### Response 50.4
